# Experimental system: Fatty-acid amide hydrolase 1 (Rattus norvegicus) (UniProt P97612)
# Sequence (P97612 whole entry): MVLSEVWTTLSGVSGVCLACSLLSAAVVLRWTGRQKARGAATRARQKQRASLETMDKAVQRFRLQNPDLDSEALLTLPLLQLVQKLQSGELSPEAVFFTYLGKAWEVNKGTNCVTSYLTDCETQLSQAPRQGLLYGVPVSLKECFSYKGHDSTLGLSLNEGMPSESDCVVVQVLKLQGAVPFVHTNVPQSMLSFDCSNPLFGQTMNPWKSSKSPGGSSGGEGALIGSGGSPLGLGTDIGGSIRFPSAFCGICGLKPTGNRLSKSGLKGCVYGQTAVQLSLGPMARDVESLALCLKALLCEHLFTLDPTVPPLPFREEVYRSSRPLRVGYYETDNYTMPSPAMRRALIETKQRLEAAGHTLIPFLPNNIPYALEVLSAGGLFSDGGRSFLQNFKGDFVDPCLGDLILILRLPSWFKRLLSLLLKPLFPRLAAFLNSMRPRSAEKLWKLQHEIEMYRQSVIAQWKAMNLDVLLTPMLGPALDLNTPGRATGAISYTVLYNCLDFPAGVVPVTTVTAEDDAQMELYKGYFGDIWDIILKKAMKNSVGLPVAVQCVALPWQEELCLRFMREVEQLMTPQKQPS
# Experiment summary: Tested for hydrolysis by rat brain microsomal anandamide amidohydrolase (AAH).
Class boundaries, taken from values of Relative rate of hydrolysis, are as follows: 1 = under 2%, 2 = from 2% up to 200%, 3 = 200% and over

Class? Entry: CCCCC/C=C\C/C=C\C/C=C\C/C=C\CCCC(=O)N(C)CCO
1

Proceed to CCCCC/C=C\C/C=C\C/C=C\C/C=C\CCCC(=O)NC[C@@H](C)O
2

Proceed to CCCCCCCC/C=C\CCCCCCCC(=O)N[C@@H](C)CO
2

Proceed to CCCCC/C=C\C/C=C\C/C=C\C/C=C\CCCC(=O)OCC(O)CO (stereo unspecified)
3

Proceed to CCCCC/C=C\C/C=C\C/C=C\C/C=C\CCCC(=O)N[C@H](C)CC
1

Proceed to CCCCC/C=C\C/C=C\C/C=C\C/C=C\CCCC(=O)NC(C)(C)C
1

Proceed to CCCCC/C=C\C/C=C\C/C=C\C/C=C\CCCC(=O)Nc1ccc(O)cc1
2

Proceed to CCCCC/C=C\C/C=C\C/C=C\C/C=C\CCCC(=O)OC(CO)CO
3

Others:
Class? Entry: CCCCC/C=C\C/C=C\C/C=C\C/C=C\CCCC(=O)Nc1ccccc1O
2

Proceed to CCCCC/C=C\C/C=C\C/C=C\C/C=C\CCCC(N)=O
3
